# MEASUREMENT TARGET: Beta-glucosidase (Homo sapiens, UniProt Q9HCG7)
# Sequence (Q9HCG7 whole entry): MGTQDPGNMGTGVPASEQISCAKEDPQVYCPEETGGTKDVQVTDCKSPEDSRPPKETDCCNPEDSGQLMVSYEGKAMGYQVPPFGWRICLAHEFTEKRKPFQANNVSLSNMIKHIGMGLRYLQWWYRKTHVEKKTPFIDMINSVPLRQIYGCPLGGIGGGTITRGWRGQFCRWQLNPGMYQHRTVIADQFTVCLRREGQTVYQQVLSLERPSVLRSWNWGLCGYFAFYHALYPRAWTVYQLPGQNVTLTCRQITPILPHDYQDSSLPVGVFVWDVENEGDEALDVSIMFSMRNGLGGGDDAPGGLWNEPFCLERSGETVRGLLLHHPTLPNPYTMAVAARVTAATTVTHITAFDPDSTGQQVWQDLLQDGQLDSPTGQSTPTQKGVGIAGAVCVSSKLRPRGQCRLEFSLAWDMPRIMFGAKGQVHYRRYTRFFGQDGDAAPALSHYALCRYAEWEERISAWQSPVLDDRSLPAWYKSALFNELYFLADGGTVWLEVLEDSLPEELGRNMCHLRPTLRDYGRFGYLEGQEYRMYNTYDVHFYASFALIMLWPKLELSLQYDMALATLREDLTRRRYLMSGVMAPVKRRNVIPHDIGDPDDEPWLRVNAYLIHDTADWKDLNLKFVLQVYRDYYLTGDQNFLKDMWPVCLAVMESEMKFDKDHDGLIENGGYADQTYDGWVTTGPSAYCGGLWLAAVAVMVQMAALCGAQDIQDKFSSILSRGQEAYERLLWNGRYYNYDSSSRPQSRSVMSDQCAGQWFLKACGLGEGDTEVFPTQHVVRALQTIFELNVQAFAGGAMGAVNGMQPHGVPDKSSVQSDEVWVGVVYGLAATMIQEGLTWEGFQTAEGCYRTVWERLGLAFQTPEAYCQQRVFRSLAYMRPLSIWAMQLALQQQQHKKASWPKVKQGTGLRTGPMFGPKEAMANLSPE
pIC50: −log10 of the molar value.
Here, each record is paired with measured pIC50 data.

| SMILES | pIC50 |
| --- | --- |
| OC[C@@H]1[C@@H](O)[C@H](O)[C@@H](O)CN1CCCCCOCc1ccc(-c2ccccc2)c(F)c1 | 10.10 |
| OC[C@@H]1[C@@H](O)[C@H](O)[C@@H](O)CN1CCCCCOCc1ccc(-c2cccc(F)c2)cc1 | 9.00 |
| C[C@H](OCCCCCN1C[C@H](O)[C@@H](O)[C@H](O)[C@H]1CO)c1ccc(-c2ccccc2)cc1 | 8.52 |
| OC[C@@H]1[C@@H](O)[C@H](O)[C@@H](O)CN1CCCCCOCc1ccc2ccccc2c1 | 9.00 |
| O=C(CCCCCN1C[C@H](O)[C@@H](O)[C@H](O)[C@H]1CO)NC12CC3CC(CC(C3)C1)C2 | 8.05 |
| OC[C@H]1[C@@H](O)[C@H](O)[C@@H](O)CN1CCCCCOCc1cc2ccccc2c2ccccc12 | 6.70 |
| OC[C@@H]1[C@@H](O)[C@H](O)[C@@H](O)CN1CCCCCOCc1ccc(-c2ccccc2)c(C(F)(F)F)c1 | 10.10 |
| CC(C)CCC[C@@H](C)[C@H]1CC[C@H]2[C@@H]3CC=C4C[C@@H](OCCCCCN5C[C@H](O)[C@@H](O)[C@H](O)[C@H]5CO)CC[C@]4(C)[C@H]3CC[C@]12C | 8.30 |
